meta.source: paper PMC8306930

system: MRC5 human fibroblast cells; assay: CV viability assay, MRC5; format: cell-based; settings: MRC5, 72 h exposure, mean ± SD
measurement_label: IC50 (µM)
Answer in µM, number only, no unit symbol.

Example results:
compound | units_symbol | IC50
CC1=C(C)[C](c2ccc(F)cc2)([Ir]([Cl])[Cl])C(C)=C1C.CC1=C(C)[C](c2ccc(F)cc2)([Ir]([Cl])[Cl])C(C)=C1C | µM | 22.2
CCC[c-]1c(C)c(C)c(C)c1C.[Cl-].[Ir+3].[c-]1ccccc1-c1ccccn1 | µM | 2.7
N.N.[Cl][Pt][Cl] [Cisplatin, cisplatin, reference compound] | µM | 0.8

Please look at the following compound next.
Fill blank: measured IC50 of the compound Cc1c(C)c(C)[c-](-c2ccc(F)cc2)c1C.[Cl-].[Ir+3].[c-]1ccccc1-c1ccccn1 is ____.
2.1
